- PROTOCOL_DETAILS: Half life period at 200 ug/mL concentration of prodrug in the presence of 0.1 ug/mL Beta-glucuronidase (Escherichia coli) in phosphate buffer
- CONDITIONS: in vitro
MEASURED_METRIC: T1/2 (min)

| MOLECULAR_STRING | T1/2 (min) |
| --- | --- |
| COc1cccc2c1C(=O)c1c(O)c3c(c(O)c1C2=O)C[C@@](O)(C(=O)CO)C[C@@H]3O[C@H]1C[C@@H](NC(=O)OCc2cc(F)ccc2O[C@@H]2O[C@@H](C(=O)O)[C@@H](O)[C@H](O)[C@@H]2O)[C@H](O)[C@H](C)O1 | 30 |
| COc1cccc2c1C(=O)c1c(O)c3c(c(O)c1C2=O)C[C@@](O)(C(=O)CO)C[C@@H]3O[C@H]1C[C@@H](NC(=O)OCc2ccc(O[C@@H]3O[C@@H](C(=O)O)[C@@H](O)[C@H](O)[C@@H]3O)c([N+](=O)[O-])c2)[C@H](O)[C@H](C)O1 | 37 |

A. COc1cccc2c1C(=O)c1c(O)c3c(c(O)c1C2=O)C[C@@](O)(C(=O)CO)C[C@@H]3O[C@H]1C[C@@H](NC(=O)OCc2ccc(O[C@@H]3O[C@@H](C(=O)O)[C@@H](O)[C@H](O)[C@@H]3O)c(F)c2)[C@H](O)[C@H](C)O1
B. COc1cccc2c1C(=O)c1c(O)c3c(c(O)c1C2=O)C[C@@](O)(C(=O)CO)C[C@@H]3O[C@H]1C[C@@H](NC(=O)OCc2ccc(O[C@@H]3O[C@@H](C(=O)O)[C@@H](O)[C@H](O)[C@@H]3O)c(Cl)c2)[C@H](O)[C@H](C)O1
C. COc1cccc2c1C(=O)c1c(O)c3c(c(O)c1C2=O)C[C@@](O)(C(=O)CO)C[C@@H]3O[C@H]1C[C@@H](NC(=O)OCc2cc([N+](=O)[O-])ccc2O[C@@H]2O[C@@H](C(=O)O)[C@@H](O)[C@H](O)[C@@H]2O)[C@H](O)[C@H](C)O1
[Q] Highest T1/2 first, then in falling order down to the smallest. Note for the reader: the ranking is given by listing the labels in the order requested.
[A] C, B, A
(C: 216 min, B: 55 min, A: 26 min)
